In this section we review reported kinase still bound, per cent of control values for a set of compounds.
Target: CDK7 (human) (UniProt P50613)
Sequence (P50613 whole entry, looked up): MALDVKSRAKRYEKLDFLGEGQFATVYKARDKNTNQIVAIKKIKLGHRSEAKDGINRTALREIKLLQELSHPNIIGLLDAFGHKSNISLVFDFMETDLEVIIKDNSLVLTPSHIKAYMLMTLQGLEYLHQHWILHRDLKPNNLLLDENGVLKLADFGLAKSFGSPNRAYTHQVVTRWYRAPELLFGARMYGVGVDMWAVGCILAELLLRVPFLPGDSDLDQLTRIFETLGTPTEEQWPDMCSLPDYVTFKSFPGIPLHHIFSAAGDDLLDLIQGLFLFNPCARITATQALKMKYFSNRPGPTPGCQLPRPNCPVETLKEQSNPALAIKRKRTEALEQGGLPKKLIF
Assay: KINOMEscan competition binding
Settings: compound 10.0 µM
// note: answer is a bare numeric in %

Provide only the value of recorded kinase still bound, per cent of control for O=C1Nc2cc(Br)ccc2/C1=C1/Nc2ccccc2/C1=N\O
12

Provide only the value of recorded kinase still bound, per cent of control for COc1ccc(CNC(=O)Nc2ncc([N+](=O)[O-])s2)cc1
100

Provide only the value of recorded kinase still bound, per cent of control for Cc1cnc(-c2cnc(NCCNc3ccc(C#N)cn3)nc2-c2ccc(Cl)cc2Cl)[nH]1
64

Provide only the value of recorded kinase still bound, per cent of control for Cn1cc(C2=C(c3ccc(Cl)cc3Cl)C(=O)NC2=O)c2ccccc21
43

====

In this section we review reported kinase still bound, per cent of control values for a set of compounds.
Target: DDR2 (human) (UniProt Q16832)
Sequence (Q16832 whole entry, looked up): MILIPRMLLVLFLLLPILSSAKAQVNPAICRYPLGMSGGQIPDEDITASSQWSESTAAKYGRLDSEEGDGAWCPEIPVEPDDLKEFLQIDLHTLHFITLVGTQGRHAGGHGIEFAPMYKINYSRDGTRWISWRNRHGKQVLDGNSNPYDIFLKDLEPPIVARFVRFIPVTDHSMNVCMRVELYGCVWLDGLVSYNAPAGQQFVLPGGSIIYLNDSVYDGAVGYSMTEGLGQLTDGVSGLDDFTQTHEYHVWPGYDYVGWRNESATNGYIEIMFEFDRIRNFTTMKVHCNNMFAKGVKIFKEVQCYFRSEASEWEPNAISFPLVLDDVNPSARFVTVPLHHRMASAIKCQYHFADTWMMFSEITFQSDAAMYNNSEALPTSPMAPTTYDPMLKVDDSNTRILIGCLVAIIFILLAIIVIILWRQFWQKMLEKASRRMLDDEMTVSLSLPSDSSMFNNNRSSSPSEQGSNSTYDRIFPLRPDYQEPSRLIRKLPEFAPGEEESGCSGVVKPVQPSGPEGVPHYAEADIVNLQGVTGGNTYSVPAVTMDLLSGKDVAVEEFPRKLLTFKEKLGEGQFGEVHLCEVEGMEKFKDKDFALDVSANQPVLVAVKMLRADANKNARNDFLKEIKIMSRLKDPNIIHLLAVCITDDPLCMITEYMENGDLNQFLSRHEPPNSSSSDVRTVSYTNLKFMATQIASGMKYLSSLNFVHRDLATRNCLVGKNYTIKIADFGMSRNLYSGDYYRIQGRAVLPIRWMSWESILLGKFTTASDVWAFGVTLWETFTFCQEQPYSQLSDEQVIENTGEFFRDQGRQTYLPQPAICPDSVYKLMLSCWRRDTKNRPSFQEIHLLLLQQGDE
Assay: KINOMEscan competition binding
Settings: compound 10.0 µM

Completed entries (count: 3):
COc1ccc(CNC(=O)Nc2ncc([N+](=O)[O-])s2)cc1 71%
Cn1cc(C2=C(c3ccc(Cl)cc3Cl)C(=O)NC2=O)c2ccccc21 84%
O=C1Nc2cc(Br)ccc2/C1=C1/Nc2ccccc2/C1=N\O 23%

Switching to the query record.
Provide only the value of recorded kinase still bound, per cent of control for Cc1cnc(-c2cnc(NCCNc3ccc(C#N)cn3)nc2-c2ccc(Cl)cc2Cl)[nH]1
100%

====

Target: PRKCQ (human)
Test: KINOMEscan competition binding
Conditions: compound 10.0 µM
In this section we review reported kinase still bound, per cent of control values for a set of molecules.
// note: answer is a bare numeric in %

Completed entries (count: 3):
Cc1cnc(-c2cnc(NCCNc3ccc(C#N)cn3)nc2-c2ccc(Cl)cc2Cl)[nH]1 100
O=C1Nc2cc(Br)ccc2/C1=C1/Nc2ccccc2/C1=N\O 55
Cn1cc(C2=C(c3ccc(Cl)cc3Cl)C(=O)NC2=O)c2ccccc21 24

Switching to the query record.
Provide only the value of recorded kinase still bound, per cent of control for COc1ccc(CNC(=O)Nc2ncc([N+](=O)[O-])s2)cc1
100

====

In this section we review reported kinase still bound, per cent of control values for a set of compounds.
Target: RPS6KA1 KD2 (human)
Test: KINOMEscan competition binding
Conditions: compound 10.0 µM
// note: answer is a bare numeric in %

Completed entries (count: 2):
COc1ccc(CNC(=O)Nc2ncc([N+](=O)[O-])s2)cc1 100
Cc1cnc(-c2cnc(NCCNc3ccc(C#N)cn3)nc2-c2ccc(Cl)cc2Cl)[nH]1 91

Provide only the value of recorded kinase still bound, per cent of control for Cn1cc(C2=C(c3ccc(Cl)cc3Cl)C(=O)NC2=O)c2ccccc21
53

Provide only the value of recorded kinase still bound, per cent of control for O=C1Nc2cc(Br)ccc2/C1=C1/Nc2ccccc2/C1=N\O
47

====

Molecular target: FGR (human)
Assay: KINOMEscan competition binding
Conditions: compound 10.0 µM
PROPERTY MEASURED: kinase still bound, per cent of control (%)
// note: answer is a bare numeric in %

Completed entries (count: 3):
O=C1Nc2cc(Br)ccc2/C1=C1/Nc2ccccc2/C1=N\O 1.4
Cn1cc(C2=C(c3ccc(Cl)cc3Cl)C(=O)NC2=O)c2ccccc21 100
COc1ccc(CNC(=O)Nc2ncc([N+](=O)[O-])s2)cc1 100

GET kinase still bound, per cent of control | system: FGR (human) | item: Cc1cnc(-c2cnc(NCCNc3ccc(C#N)cn3)nc2-c2ccc(Cl)cc2Cl)[nH]1
100
